# subjectOfTest: T1, human PD-L1 (human, UniProt Q9NZQ7 19-238, limits assumed)
# T1 construct: Protein used in the Biacore assays of 3.1
# assayNotes: Biacore kinetic profile
observable: t½ (min)
One number for each entry, in min.

Q: Look at this binder and give its reported t½. A09-242-2 (antibody, human IgG1, lambda, V domains shown, also called VL-A31G; VH-M33L, M35F, S63T, I93V) VH: EVQLLESGGGLVQPGGSLRLSCAASGFTFSMYLMFWVRQAPGKGLEWVSSIYPSGGITFYADTVKGRFTISRDNSKNTLYLQMNSLRAEDTAVYYCARIKLGTVTTVDYWGQGTLVTVSS VL: QSALTQPASVSGSPGQSITISCTGTSSDVGGYNYVSWYQQHPGKAPKLMIYDVSNRPSGVSNRFSGSKSGNTASLTISGLQAEDEADYYCSSYTSSSTRVFGTGTKVTVLG
A: 55.6
